Every entry's value here was drawn from the METLIN SMRT retention time set (Domingo-Almenara et al. 2019).

Give measured RP-LC retention time for each item. Keep answers brief.
Test: gradient 5% acetonitrile 3 min, to 50% in 2 min, to 85% in 15 min, held 3 min, 100 µL/min
Conditions: column: Zorbax Extend-C18 2.1 x 50 mm; eluents: water / acetonitrile, 0.1% formic acid

input: RP-LC retention time for CCOCCCNC(=O)C1c2c(n(C)c3ccccc23)SCC(=O)N1Cc1ccc(OC)cc1 (stereo not drawn) ?
output: 875 s

input: Record: `Cc1ccc(Cn2c(N3CCC(C(=O)NCC4CC4)CC3)nc3ccsc3c2=O)cc1`
output: 879 s

input: Same lookup for `COc1ccc(NC(=O)CN2CCc3[nH]c4c(C)cc(C)cc4c(=O)c3C2)cc1OC` , please.
output: 922 s

====

Assay: gradient 5% acetonitrile 3 min, to 50% in 2 min, to 85% in 15 min, held 3 min, 100 µL/min
Details: column: Zorbax Extend-C18 2.1 x 50 mm; eluents: water / acetonitrile, 0.1% formic acid
Exercise: state measured RP-LC retention time for each of the compounds provided.
Kindly format the answer as number then unit.

input: Given the compound `Cc1cc(NC(=O)C2CCN(C(=O)C3(c4cccs4)CCCC3)CC2)no1` , what is its reported RP-LC retention time?
output: 800 s

input: Would you kindly repeat that for `COc1ccc(OCc2noc(CNC(=O)CCC(=O)c3ccccc3)n2)cc1` ?
output: 712 s

input: Input CN1C(=O)c2cc(C(=O)NCc3ccccc3Br)nn2CC1(C)C(=O)NC1CCCC1 (stereo not drawn)
output: 828 s

input: Do the same for Cc1cc(C(F)(F)F)nn1CC(=O)NCC1Cn2cccc2C(=O)N1CC(C)C (stereo not drawn) please
output: 797 s

input: Can you handle `O=C(Cn1ccn2nc(-c3ccccc3)c(CO)c2c1=O)N1CCc2ccccc21` next?
output: 848 s

input: # repeat for `Cc1nc2c(NC(=O)COc3ccc(F)c(F)c3)cccn2n1`
output: 818 s

input: Same for Cc1ccc(S(=O)(=O)N2CCN(C3=CC4=NC(C)CN4C=N3)CC2)cc1C (stereo not drawn)
output: 698 s

input: Would you kindly repeat that for `CCC(=O)N1CCN(Cc2nc3cc(NC(=O)CC(C)C)ccc3n2C)CC1` ?
output: 603 s

input: Thanks! And `CCSc1ccccc1C(=O)Nc1cccc2ccc(-n3ccnc3)nc12` ?
output: 668 s

input: // query: `CCCc1ccc(S(=O)(=O)N2CCC(F)(c3nc(CC(C)C)no3)CC2)cc1`
output: 1330 s

input: Lookup `CCCNC(=O)C1CCN(c2ccc(SCC(=O)Nc3cc(C)cc(C)c3)nn2)CC1`
output: 685 s

input: Moving on to CCc1ccc(S(=O)(=O)N2CCN(C3CCN(CCC(C)C)C3=O)CC2)cc1 (stereo not drawn)
output: 736 s

input: Would you mind doing COCC(C)(O)CNC(=O)C(=O)Nc1cccc(F)c1 (stereo not drawn) as well?
output: 675 s

input: Try the compound `Cc1ccc(-c2noc(CSc3nc4cc5c(cc4c(=O)n3C3CC3)OCO5)n2)cc1`
output: 874 s

input: Subsequent entry: `Fc1cccc(-c2nnc(-c3ccccc3Cl)o2)c1`
output: 1060 s

input: Let us now turn to `CCNC(=O)c1nnn(-c2cccc(Cl)c2)c1-c1cccnc1`
output: 740 s

input: Then what about the compound CC(=O)N1CCC2(CC1)CC(CC(=O)NCc1ccc(C)o1)CCO2 (stereo not drawn) ?
output: 625 s

input: What about this compound? `O=C(NC1CCCCCC1)c1ccc2c(c1)nc1n2CCN(Cc2ccccc2)C1=O`
output: 829 s
